Each recorded value in this set is attributed to patent US8609847B2.

Target: human H3 receptor (Homo sapiens, UniProt Q9Y5N1)
Construct: purchased Perkin Elmer ES-392-M400UA; host or cells: CHO-K1 cells (recombinant expression), membrane preparation
Sequence (Q9Y5N1 whole entry): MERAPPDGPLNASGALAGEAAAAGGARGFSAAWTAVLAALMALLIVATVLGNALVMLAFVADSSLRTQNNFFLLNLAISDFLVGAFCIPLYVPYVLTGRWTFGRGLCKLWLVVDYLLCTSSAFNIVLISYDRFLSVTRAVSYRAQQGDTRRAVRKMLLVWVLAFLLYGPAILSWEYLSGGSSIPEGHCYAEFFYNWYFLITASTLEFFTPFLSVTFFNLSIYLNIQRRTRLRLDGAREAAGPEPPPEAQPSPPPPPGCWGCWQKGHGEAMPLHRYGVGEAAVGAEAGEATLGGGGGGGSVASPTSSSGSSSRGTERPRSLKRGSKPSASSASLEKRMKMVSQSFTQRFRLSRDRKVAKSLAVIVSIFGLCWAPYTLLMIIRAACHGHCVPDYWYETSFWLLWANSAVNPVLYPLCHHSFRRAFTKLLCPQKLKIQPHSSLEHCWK
Test: H3 Receptor Binding Test
Conditions: 50% inhibition of R(−)-α-methyl[3H]histamine (1 nM) binding; membrane preparation of human H3 receptor-expressing CHO-K1 cells
Protocol: A membrane preparation of human H3 receptor-expressing CHO-K1 cells (Perkin Elmer, ES-392-M400UA, 15 μg protein/200 μl), R(−)-α-methyl[^3H]histamine (Amersham, TRK-1017, specific activity: 1.74 TBq/mmol, 1 nM) and a test drug were reacted at room temperature for 1 hour. […] After washing, the glass filter was dried and a scintillator was added thereto, followed by measurement of radioactivity on the filter using a liquid scintillation counter. […]
So I've got a bunch of molecules here, and I need their IC50 values.
The reply should contain only the number, in nM.

stdin: What value of IC50 has been recorded for this entry: `COc1cc(F)cc(N2C(=O)CCc3cc(OCCCN4CCC[C@H]4C)ccc32)c1`
stdout: 2.4

stdin: Request the reported IC50 associated with `CC(C)(C)N1CCC(Oc2ccc3c(c2)CCC(=O)N3c2ccc(C#N)cc2)CC1`
stdout: 4.9

stdin: What value of measured IC50 is listed for `Cc1ccc(N2C(=O)CCc3cc(OCCCN4CCC[C@H]4C)ccc32)cn1` ?
stdout: 2.9

---

Target: human H3 receptor (Homo sapiens, UniProt Q9Y5N1)
Construct: purchased Perkin Elmer ES-392-M400UA; host or cells: CHO-K1 cells (recombinant expression), membrane preparation
Test: H3 Receptor Binding Test
Settings: 50% inhibition of R(−)-α-methyl[3H]histamine (1 nM) binding; membrane preparation of human H3 receptor-expressing CHO-K1 cells
Procedure: A membrane preparation of human H3 receptor-expressing CHO-K1 cells (Perkin Elmer, ES-392-M400UA, 15 μg protein/200 μl), R(−)-α-methyl[^3H]histamine (Amersham, TRK-1017, specific activity: 1.74 TBq/mmol, 1 nM) and a test drug were reacted at room temperature for 1 hour. […] After washing, the glass filter was dried and a scintillator was added thereto, followed by measurement of radioactivity on the filter using a liquid scintillation counter. […]
Metric Name: pIC50
Hey, just a heads up that pIC50 is the negative log base 10 of the concentration in molar.

stdin: Need pIC50, item `O=C1CCc2cc(OCCCN3CCCC3)ccc2N1c1cccc(F)c1`
stdout: 7.77

stdin: Any idea what pIC50 was measured for `COc1ccc(N2C(=O)CCc3cc(OC4CCN(C5CCC5)CC4)ccc32)cn1` ?
stdout: 8.57

stdin: Looking for the measured pIC50 of `CCOc1ccc(N2C(=O)CCc3cc(OCCCN4CCC[C@H]4C)ccc32)cc1` , can you help?
stdout: 8.41

stdin: Field request: pIC50 | item: `CCN(CC)CCCOc1ccc2c(c1)CCC(=O)N2c1ccc(F)cc1`
stdout: 7.89

stdin: So what does the record say about pIC50 for `Cc1ccc(N2C(=O)CCc3cc(OCCCN4CCC[C@H]4C)ccc32)cc1C#N` ?
stdout: 8.57

stdin: Endpoint output: pIC50 of `C[C@@H]1CCCN1CCCOc1ccc2c(c1)CCC(=O)N2c1ccccc1` . Value?
stdout: 9.10

stdin: Looking for the measured pIC50 of `CC(C)N1CCC(Oc2ccc3c(c2)CCC(=O)N3c2ccc(F)cc2)CC1` , can you help?
stdout: 8.85

stdin: Quick check: pIC50 of `C[C@@H]1CCCN1CCCOc1ccc2c(c1)CCC(=O)N2c1ccc(N2CCCC2=O)cc1` ?
stdout: 7.70

stdin: Entry under review: `O=C1CCc2cc(OCCCN3CCCC3)ccc2N1c1ccc(F)c(F)c1` . Reported pIC50?
stdout: 7.74

stdin: What value of pIC50 has been recorded for this entry: `C[C@@H]1CCCN1CCCOc1ccc2c(c1)CCC(=O)N2c1cn(C(=O)OC(C)(C)C)c2ccccc12`
stdout: 7.47

stdin: // returns reported pIC50 for input `CC(C)(C)N1CCC(Oc2ccc3c(c2)CCC(=O)N3c2ccccc2)CC1`
stdout: 8.62
